# PROCEDURE TEXT: AUC (last) in beagle dog at 10 mg/kg, po measured up to 24 hrs by LC-MS/MS analysis
# Type: ADME, organism-based, Canis lupus familiaris
# Parameters: dose 10 mg/kg, time 0 - last, route oral
# TEST SETTINGS: in vivo
Readings of AUC(0-t) at 24 h for the listed molecules

Consider the following illustrative entries.
SAMPLE SMILES	AUC(0-t) at 24 h
COC(=O)N[C@H](C(=O)N1CCC[C@H]1c1ncc(-c2ccc3c(ccc4cc(-c5cnc([C@@H]6CCCN6C(=O)[C@@H](NC(=O)OC)C(C)C)[nH]5)sc43)c2)[nH]1)C(C)C	49 µM·h
COC(=O)N[C@H](C(=O)N1CCC[C@H]1c1ncc(-c2ccc3c(c2)CCc2cc(-c4cnc([C@@H]5CCCN5C(=O)[C@@H](NC(=O)OC)C(C)C)[nH]4)sc2-3)[nH]1)C(C)C	11 to 93 µM·h

Req: Give its AUC(0-t) at 24 h value. Item: "COC(=O)N[C@H](C(=O)N1CCC[C@H]1c1ncc(-c2ccc3c(c2)OCc2cc(-c4cnc([C@@H]5CCCN5C(=O)[C@@H](NC(=O)OC)C(C)C)[nH]4)sc2-3)[nH]1)C(C)C"
Resp: 40 µM·h

The measurements presented in this section are drawn from ChEMBL document CHEMBL4321845.
